Tested on: Staphylococcus epidermidis
ASSAY_INFO: Antibacterial activity against methicillin-susceptible coagulase-negative Staphylococcus epidermidis 051 by broth macrodilution method
Format: functional
MEASURED_METRIC: MIC (µg/mL)
The reply should contain only the number, in µg/mL.

[
  {
    "MOLECULE": "COc1cc(Cc2cnc(N)nc2N)cc(/C=C/C(=O)N2N=Cc3ccccc3C2c2cnc(N3CCOCC3)nc2)c1OC (stereo not drawn)",
    "MIC [µg/mL]": 0.25
  }
]

query: // query MIC value for entry CCC[C@@H]1C[C@@H](C(=O)N[C@@H]([C@H]2O[C@H](SC)[C@H](O)[C@@H](O)[C@H]2O)[C@H](C)Cl)N(C)C1
result: 0.125

query: Continue with COc1ncc(C2c3ccccc3C=NN2C(=O)/C=C/c2cc(Cc3cnc(N)nc3N)cc(OC)c2OC)cn1 (stereo not drawn)
result: 0.125

----------
Test system: Staphylococcus epidermidis
ASSAY_INFO: Antibacterial activity against methicillin-susceptible coagulase-negative Staphylococcus epidermidis 057 by broth macrodilution method
Assay type: functional
Could you mark each record t if its MIC falls strictly under 4 µg/mL, and f if it equals or exceeds it?

Some entries whose results are on file:
[
  {
    "COMPOUND": "CCC[C@@H]1C[C@@H](C(=O)N[C@@H]([C@H]2O[C@H](SC)[C@H](O)[C@@H](O)[C@H]2O)[C@H](C)Cl)N(C)C1 [CLINDAMYCIN]",
    "ASSIGNED_CATEGORY": "t"
  },
  {
    "COMPOUND": "CO[C@H]1/C=C/O[C@@]2(C)Oc3c(C)c(O)c4c(O)c(c(/C=N/N5CCN(C)CC5)c(O)c4c3C2=O)NC(=O)/C(C)=C\\C=C\\[C@H](C)[C@H](O)[C@@H](C)[C@@H](O)[C@@H](C)[C@H](OC(C)=O)[C@@H]1C [RIFAMPIN]",
    "ASSIGNED_CATEGORY": "t"
  },
  {
    "COMPOUND": "COc1cc(Cc2cnc(N)nc2N)cc(OC)c1OC [TRIMETHOPRIM]",
    "ASSIGNED_CATEGORY": "f"
  },
  {
    "COMPOUND": "COc1ncc(C2c3ccccc3C=NN2C(=O)/C=C/c2cc(Cc3cnc(N)nc3N)cc(OC)c2OC)cn1 (stereo not drawn)",
    "ASSIGNED_CATEGORY": "f"
  },
  {
    "COMPOUND": "CN(C)c1ccc(O)c2c1C[C@H]1C[C@H]3[C@H](N(C)C)C(O)=C(C(N)=O)C(=O)[C@@]3(O)C(O)=C1C2=O [MINOCYCLINE]",
    "ASSIGNED_CATEGORY": "t"
  }
]

query: Quick check: MIC of CC(=O)NC[C@H]1CN(c2ccc(N3CCOCC3)c(F)c2)C(=O)O1 [LINEZOLID] under 4 µg/mL?
result: t

----------
System: Staphylococcus epidermidis
ASSAY_INFO: Antibacterial activity against methicillin-resistant, Linezolid non-susceptible coagulase-negative Staphylococcus epidermidis 345 after 50 passages by agar dilution method
Assay type: functional
MEASURED_METRIC: MIC (µg/mL)
Kindly provide the numeric value in µg/mL only, without the unit symbol.

// solved cases for MIC follow
[
  {
    "MOLECULE": "CC(=O)NC[C@H]1CN(c2ccc(N3CCOCC3)c(F)c2)C(=O)O1",
    "VALUE_UNITS": "µg/mL",
    "MIC": 128
  },
  {
    "MOLECULE": "CCC[C@@H]1C[C@@H](C(=O)N[C@@H]([C@H]2O[C@H](SC)[C@H](O)[C@@H](O)[C@H]2O)[C@H](C)Cl)N(C)C1",
    "VALUE_UNITS": "µg/mL",
    "MIC": 4
  },
  {
    "MOLECULE": "CN(C)c1ccc(O)c2c1C[C@H]1C[C@H]3[C@H](N(C)C)C(O)=C(C(N)=O)C(=O)[C@@]3(O)C(O)=C1C2=O",
    "VALUE_UNITS": "µg/mL",
    "MIC": 1
  }
]

query: Quick one: MIC for COc1ncc(C2c3ccccc3C=NN2C(=O)/C=C/c2cc(Cc3cnc(N)nc3N)cc(OC)c2OC)cn1 (stereo not given) ?
result: 16

query: Follow-up entry: COc1cc(Cc2cnc(N)nc2N)cc(/C=C/C(=O)N2N=Cc3ccccc3C2c2cnc(N3CCOCC3)nc2)c1OC (stereo not given)
result: 4

Values were extracted from ChEMBL document CHEMBL1649147.
